Values compiled from PubChem BioAssay (NCI).

Tested on: NCI/ADR-RES ovarian
Assay: NCI tumour cell line growth inhibition, 48 h; in the data active = GI50 below about 0.43 µM; inactive = the rest
Labels: y for active, n for inactive

Compound	Measured Target	Class Assignment
CC12CCC(=O)C(O1)C1C(=O)c3cc4ccccc4cc3C(=O)C12 (stereo unspecified)	NCI/ADR-RES ovarian	n
OCC1OC(n2ccc3c2ncn2ncnc32)C(O)C1O (stereo unspecified)	NCI/ADR-RES ovarian	n
CN(C)CCNC(=O)c1cccn2c(=O)c3cc4ccccc4cc3nc12	NCI/ADR-RES ovarian	y
Fc1ccc(-c2nc3n(c2-c2ccncc2)CCS3)cc1	NCI/ADR-RES ovarian	n
O=S(=O)(c1ccc(NC(=S)NCc2cccnc2)cc1)N1CCCCC1	NCI/ADR-RES ovarian	n
CCc1c(C)[nH]c(/C=C2\N=C(c3ccc[nH]3)C=C2OC)c1C	NCI/ADR-RES ovarian	y
N#CSc1ncnc2nc[nH]c12	NCI/ADR-RES ovarian	n
COc1ccc2c(c1)CC[C@@H]1[C@@H]2CC[C@]2(C)C(=O)C3(CCCCC3)C[C@@H]12	NCI/ADR-RES ovarian	n
CCN=C1C=CC(=C(c2ccc(N(C)C)cc2)c2ccc(N(C)C)cc2)c2ccccc21	NCI/ADR-RES ovarian	n
NC(=O)[C@H]1CCN(c2ncnc(N)c2F)C[C@@H]1N1CCC[C@@H](Nc2cc(Cl)cc(C(F)(F)F)c2)C1=O	NCI/ADR-RES ovarian	n
N#Cc1ncc(/N=C/c2ccc(N(CCCl)CCCl)cc2)s1	NCI/ADR-RES ovarian	n

###

System: A549 NSCLC
Assay: NCI tumour cell line growth inhibition, 48 h
Decision: TGI >= 40 µM yields YES, all other cases yield NO.

Compound	Class Assignment
COc1ccc2c(c1)CC[C@@H]1[C@@H]2CC[C@]2(C)C(=O)C3(CCCCC3)C[C@@H]12	YES
COc1cc(OCc2ccc3nc(-c4ccccc4)c(N)nc3c2)cc(OC)c1OC	YES
COc1cc2c(cc1OC)-c1ccc3cc4c(cc3c1N(CCN1CCCC1)C2)OCO4	NO
Cn1c(O)c(C(=O)Nc2cccs2)c(=O)[nH]c1=S	YES
N#CC(C#N)=Cc1ccc(-c2ccc(-c3nc4ccccc4s3)cc2)o1	NO
O=C(O)CSSCC(=O)O	YES
CC1=C(C(=O)Nc2cccc3c2C(=O)NC3=O)CC(C(=O)Nc2cccc3c2C(=O)NC3=O)=C(C)N1	YES
COc1cc(/C=C\c2ccccn2)cc(OC)c1OC	YES
C=CCONC(=O)c1ccc(Cl)cc1	YES
CC(C)(O)c1ccc(N2CCN(c3nnc(Cc4ccccc4)c4ccccc34)CC2)nc1	NO
COc1ccc(C2c3cc4c(cc3C(O)C3CCC(=O)N23)OCO4)cc1 (stereo unspecified)	YES

###

System: NCI-H460 lung
Labels: YES = active, NO = inactive

Compound	Class Assignment
CC1=C(C(=O)OCc2ccccc2)C(c2ccc3c(c2)OCO3)n2c(nc3ccccc32)N1 (stereo not given)	YES
Cc1cc(N2CCCCC2)nc(N(CCNc2ccnc3cc(Cl)ccc23)Cc2ccco2)n1	NO
COc1ccc(Cn2nc(-c3cc(OC)c(OC)c(OC)c3)c3c2CCc2cnoc2-3)cc1OC	NO
O=S(=O)(c1ccc(NC(=S)NCc2cccnc2)cc1)N1CCCCC1	NO
CCN1C(=O)N(CC)C2C1NN=c1s/c(=C3\C(=O)N(C(C)C)c4ccccc43)c(=O)n12 (stereo not given)	YES
COc1cc2c(cc1OC)-c1ccc3cc4c(cc3c1N(CCN1CCCC1)C2)OCO4	YES
CCc1ccc(NC(=O)Nc2c[nH]c3ccccc23)cc1	NO
N#CC(C#N)=Cc1ccc(-c2ccc(-c3nc4ccccc4s3)cc2)o1	NO
N=C(N)c1nn(C2OC(CO)C(O)C2O)c2nc[nH]c(=O)c12 (stereo not given)	NO
O=C(CCl)c1ccc([N+](=O)[O-])o1	NO

###

System: UACC-257 melanoma
Experiment: NCI tumour cell line growth inhibition, 48 h; in the data active = GI50 below about 0.43 µM; inactive = the rest
Labels: 1 = active, 0 = inactive

Molecule	Measured Target	Class Assignment
CCOC(=O)Cc1c[nH]c(=S)[nH]c1=O	UACC-257 melanoma	0
N#CSc1ncnc2nc[nH]c12	UACC-257 melanoma	0
N#Cc1ncc(/N=C/c2ccc(N(CCCl)CCCl)cc2)s1	UACC-257 melanoma	0
Fc1ccc(-c2nc3n(c2-c2ccncc2)CCS3)cc1	UACC-257 melanoma	0
Cc1cc(N2CCCCC2)nc(N(CCNc2ccnc3cc(Cl)ccc23)Cc2ccco2)n1	UACC-257 melanoma	0
CCCN(Cc1ccc(F)cc1)c1ccc(CO)c(Cl)c1	UACC-257 melanoma	1
Nc1nc(/C=C\c2ccc([N+](=O)[O-])o2)nc(N2CCN(c3ccccc3)CC2)n1	UACC-257 melanoma	0
COc1cc2nc(Cl)nc(Nc3cccc(C(=O)/C=C/c4ccccc4)c3)c2cc1OC	UACC-257 melanoma	0
C=C(C)[C@@H]1CC=C(CO)CC1	UACC-257 melanoma	0
O=C1C(Cl)=C(N/N=c2/[nH][nH]/c(=N/NC3=C(Cl)C(=O)c4ccccc4C3=O)c3ccccc23)C(=O)c2ccccc21	UACC-257 melanoma	0
CC[C@](C)(O)C(=O)O[C@H]1C(=O)O[C@@H]2C[C@H]3C(C)=CC(=O)[C@@H](O)[C@]3(C)[C@H]3[C@@]4(O)OC[C@]32[C@@H]1[C@@H](C)[C@H]4O	UACC-257 melanoma	1
N=C(N)c1nn(C2OC(CO)C(O)C2O)c2nc[nH]c(=O)c12 (centres undefined)	UACC-257 melanoma	1
CCc1ccc(NC(=O)Nc2c[nH]c3ccccc23)cc1	UACC-257 melanoma	0
CCCN1C(=O)/C(=c2\sc3n(c2=O)C2C(NN=3)N(CC)C(=O)N2CC)c2ccccc21 (centres undefined)	UACC-257 melanoma	0
c1ccc2nc(Cn3c[n+](Cc4ccc5ccccc5n4)c4ccccc43)ccc2c1	UACC-257 melanoma	0
O=C(CCl)c1ccc([N+](=O)[O-])o1	UACC-257 melanoma	0
COc1cccc(C2=C(c3cn(C)c4ccccc34)C(=O)NC2=O)c1	UACC-257 melanoma	0
CN(C)CCNC(=O)c1cccn2c(=O)c3cc4ccccc4cc3nc12	UACC-257 melanoma	1
O=c1cc(CNc2cc(F)cc(F)c2)c2ccc(I)cc2[nH]1	UACC-257 melanoma	0

###

Quick list: TGI per entry.
Tested on: MDA-N
Experiment: NCI tumour cell line growth inhibition, 48 h

Compound	TGI
CC1(C)C(=O)N(O)C(C)(C)N1O	> 10 µM
O=S1(=O)c2cnccc2NC(=NCc2cccc3ccccc23)N1c1ccccc1	26.9 µM
CC1=NC(=O)C(C)(c2ccccc2)N1CCc1ccccc1 (configuration not stated)	> 100 µM
Cc1occc1C(=S)Nc1ccc(Cl)c(C(=O)OCC(F)(F)F)c1	> 100 µM
Clc1cccc(Cl)c1C=NC12CC3CC(CC(C3)C1)C2	> 10 µM
CC(C)(C(=O)NN)c1ccccc1	> 100 µM
CC12CCC(=O)C=C1CCC1C2CCC2(C)C(C(=O)Cn3cnc4c(=S)nc[nH]c43)CCC12 (configuration not stated)	> 100 µM
O=c1c2cc(S(=O)(=O)Nc3ccccc3Cl)ccc2ncn1NS(=O)(=O)c1ccc(Br)cc1	> 37.5 µM
Cc1c2cnccc2c(C)c2c1[nH]c1ccc(O)cc12	> 10 µM
CC(C)c1ccccc1SC1CC(=O)CC(Sc2ccccc2C(C)C)C12O[C@H](c1ccccc1)[C@@H](c1ccccc1)O2 (some centres not stated)	47.5 µM
COc1cc(OCc2ccc3nc(-c4ccccc4)c(N)nc3c2)cc(OC)c1OC	28.8 µM
COC(=O)[C@H](Cc1ccccc1)NC(=O)NCCN(CCNC(=O)N[C@@H](Cc1ccccc1)C(=O)OC)C(=O)N[C@@H](Cc1ccccc1)C(=O)OC	32.9 µM

###

Tested on: SK-MEL-2 melanoma
Labels: active, inactive

Compound	Class Assignment
COc1cc2c(cc1OC)-c1ccc3cc4c(cc3c1N(CCN1CCCC1)C2)OCO4	inactive
CCc1ccc(NC(=O)Nc2c[nH]c3ccccc23)cc1	inactive
C=C(C)[C@@H]1CC[C@]2(C(=O)NCCCN)CC[C@]3(C)[C@H](CC[C@@H]4[C@@]5(C)CC[C@H](O)C(C)(C)[C@@H]5CC[C@]43C)[C@@H]12	inactive
CCCN(Cc1ccc(F)cc1)c1ccc(CO)c(Cl)c1	inactive
CN(C)CCNC(=O)c1cccn2c(=O)c3cc4ccccc4cc3nc12	active
CC12CCC(=O)C(O1)C1C(=O)c3cc4ccccc4cc3C(=O)C12 (stereo unspecified)	inactive
O=c1cc(CNc2cc(F)cc(F)c2)c2ccc(I)cc2[nH]1	inactive
CCOC(=O)Cc1c[nH]c(=S)[nH]c1=O	inactive
C=C(C)[C@@H]1CC=C(CO)CC1	inactive
CC[C@H](Nc1nc(N)nc(C)c1C#N)c1nc2cccc(CN(C)c3ncc(C(=O)NO)cn3)c2c(=O)n1-c1ccccc1	inactive
COc1cc2cc(Oc3ccc(NC(=O)Nc4ccc(Cl)c(C(F)(F)F)c4)cc3)c(C)nc2cc1OCCN1CCCCC1	inactive
N#Cc1ncc(/N=C/c2ccc(N(CCCl)CCCl)cc2)s1	inactive
O=C(CCN1CCCC1)Nc1ccc2c(NCc3ccc(F)cc3)c3ccccc3nc2c1	inactive
COc1cc2nc(Cl)nc(Nc3cccc(C(=O)/C=C/c4ccccc4)c3)c2cc1OC	inactive
N#CC(C#N)=Cc1ccc(-c2ccc(-c3nc4ccccc4s3)cc2)o1	inactive
CC(C)(O)c1ccc(N2CCN(c3nnc(Cc4ccccc4)c4ccccc34)CC2)nc1	inactive
CC(=O)[O][Pb]([O]C(C)=O)([c]1ccccc1)[c]1ccccc1	inactive
CN(C)CCCNC(=O)c1cc(NC(=O)CCNS(=O)(=O)c2ccc3c(c2)C(=O)c2ccccc2C3=O)cn1C	inactive
CCOC(=O)c1c2c(n(CC(C)C)c1C)-c1nc[nH]c1C(=O)C2=O	inactive
CCN(CC)c1ccc(/C=C/c2cc(C)c3ccccc3n2)cc1	inactive
O=C(CCl)c1ccc([N+](=O)[O-])o1	inactive
